Origin of measurements: patent US11478451B1

Test system: SUDHL5 cells
Experiment: Antiproliferation assay (CellTiter-Glo, 72 h), SUDHL5
Type: cell-based
Conditions: Homo sapiens, SU-DHL-5, 72 h, IC50, median; SUDHL5, 72 h; read-out: Antiproli SUDHL5 [M] (median)
outcome measure: IC50 (M)

>  <molecule>
Cc1c2c(nn1C)COCCCCn1c(C(=O)O)c(CCCOc3cccc4cc(F)ccc34)c3ccc(Cl)c-2c31 (single isomer, unassigned; enantiomer 1)

>  <outcome measure>
IC50

>  <numeric result>
1.5e-06

$$$$
>  <molecule>
Cc1c2c(nn1C)COCC1CC1Cn1c(C(=O)O)c(CCCOc3cccc4ccccc34)c3ccc(Cl)c-2c31 (single isomer, unassigned)

>  <outcome measure>
IC50

>  <numeric result>
8.1e-07

$$$$
>  <molecule>
CCc1nn(C)c2c1-c1c(Cl)ccc3c(CCCOc4cccc5cc(F)ccc45)c(C(=O)O)n(c13)CCCCN(C)C2 (single isomer, unassigned; enantiomer 1)

>  <outcome measure>
IC50

>  <numeric result>
2e-07

$$$$
>  <molecule>
Cc1c2c(nn1C)COCCn1c(C(=O)O)c(CCCOc3cccc4ccccc34)c3ccc(Cl)c-2c31 (racemic)

>  <outcome measure>
IC50

>  <numeric result>
5.5e-07

$$$$
>  <molecule>
Cc1c2c(nn1C)COCC1CCC1Cn1c(C(=O)O)c(CCCOc3cccc4ccccc34)c3ccc(Cl)c-2c31 (single isomer, unassigned)

>  <outcome measure>
IC50

>  <numeric result>
2.2e-07

$$$$
